The reported numbers originate from ChEMBL document CHEMBL5260819.

System: KB
experiment description: Anticancer activity against human KB cells assessed as inhibition of cell growth
Format: functional, cell-based
Measured IC50 by item
Please give a number only; it is taken to be in µM.

Example entries and their recorded answers appear below.
COc1ccc(S(=O)(=O)Oc2cccc(-c3nc(N)c4c(=O)oc5ccccc5c4n3)c2)cc1OC; 29.7
Nc1nc(-c2cccc(OS(=O)(=O)c3ccc(F)cc3)c2)nc2c1c(=O)oc1ccccc12; 11.6
Nc1nc(-c2cccc(OS(=O)(=O)c3ccc([N+](=O)[O-])cc3)c2)nc2c1c(=O)oc1ccccc12; 17

Let us move to another entry and its IC50.
Bench note, KB: `Nc1nc(-c2cccc(OS(=O)(=O)c3ccc(Br)cc3)c2)nc2c1c(=O)oc1ccccc12` , IC50 reads 15.8
